- target or system: T1, KDM7C (PHF2) PHD-finger
- T1 chain: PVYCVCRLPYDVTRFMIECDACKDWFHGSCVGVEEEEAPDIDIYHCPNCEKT
Bridge positions count the residues as written; N and C are the ends. Ends that are not written are not given here.
recorded metric: IC50 (nM)
Kindly answer with a numeric value in nM, unit omitted.

// IC50 lookup, binder = {CH2CO}-YYLTHPYPSVFRTC (thioether N-14) [OC9, de novo cyclic peptide from mRNA display] , result: 25.1

The origin of these recorded values is paper PMC10321576.
